Every entry's value here was drawn from the kinase profiling compilation of Christmann-Franck et al. (2016).

List of IC50 tested on TTK (human) (UniProt P33981).
Sequence (P33981 whole entry, looked up): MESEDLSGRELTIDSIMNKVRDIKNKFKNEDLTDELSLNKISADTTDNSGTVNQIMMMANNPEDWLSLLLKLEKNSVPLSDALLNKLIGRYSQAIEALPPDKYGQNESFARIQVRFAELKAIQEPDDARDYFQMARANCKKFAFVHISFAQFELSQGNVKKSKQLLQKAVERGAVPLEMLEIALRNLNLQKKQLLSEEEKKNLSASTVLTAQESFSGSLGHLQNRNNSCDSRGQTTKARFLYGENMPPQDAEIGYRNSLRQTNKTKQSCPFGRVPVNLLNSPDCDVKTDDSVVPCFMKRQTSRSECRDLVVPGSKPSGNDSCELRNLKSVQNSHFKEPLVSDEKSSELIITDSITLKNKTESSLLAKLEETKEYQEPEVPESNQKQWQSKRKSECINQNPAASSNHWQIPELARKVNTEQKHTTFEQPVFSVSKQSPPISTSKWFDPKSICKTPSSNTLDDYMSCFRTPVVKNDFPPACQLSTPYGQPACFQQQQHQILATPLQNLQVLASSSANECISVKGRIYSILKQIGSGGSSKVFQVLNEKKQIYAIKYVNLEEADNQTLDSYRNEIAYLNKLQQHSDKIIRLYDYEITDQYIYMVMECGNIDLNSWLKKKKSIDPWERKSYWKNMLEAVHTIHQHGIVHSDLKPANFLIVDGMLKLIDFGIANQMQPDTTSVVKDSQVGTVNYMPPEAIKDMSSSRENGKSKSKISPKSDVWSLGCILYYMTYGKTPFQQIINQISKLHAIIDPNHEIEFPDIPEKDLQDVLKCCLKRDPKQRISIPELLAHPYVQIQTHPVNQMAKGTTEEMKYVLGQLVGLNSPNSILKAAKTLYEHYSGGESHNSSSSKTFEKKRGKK

Consider the worked cases shown below.
compound=COc1cc(N(C)CCO)ccc1Nc1ncc2c(n1)N(C1CCCC1)CCC(=O)N2C result="1.37 µM"
compound=CCOc1cc(N2CCC(O)CC2)ccc1Nc1ncc2c(n1)N(C1CCCC1)CCC(=O)N2 result="7.45 µM"
compound=CC[C@@H]1C(=O)N(C)c2cnc(Nc3ccc(N(C)CCO)cc3OC)nc2N1C1CCCC1 result="> 10 µM"
compound=CC(C)Oc1cc(N2CCC(O)CC2)ccc1Nc1ncc2c(n1)N(C1CCCC1)CCC(=O)N2C result="0.605 µM"
compound="CC[C@@H]1C(=O)N(C)c2cnc(Nc3ccc(N4CCCC(O)C4)cc3OC)nc2N1C1CCCC1 (stereo partly specified)" result="> 10 µM"

Request: Report IC50 for O=C1NC(=S)S/C1=C\c1ccc(-c2cccc3cc[nH]c23)o1
Result: 0.145 µM

---

Target: DYRK1B (human)
Assay: KINOMEscan competition binding
Conditions: compound 10.0 µM
MEASUREMENT_KIND: kinase still bound, per cent of control (%)
Reply with just the number (in %).

Consider the worked cases shown below.
smiles_representation=CS(=O)(=O)Nc1ccc(-c2ncc(/C=C3\SC(=N)NC3=O)s2)cc1 measurement_kind="kinase still bound, per cent of control" number=3.1
smiles_representation=N=C1NC(=O)/C(=C/c2ccc(-c3csc4ccccc34)o2)S1 measurement_kind="kinase still bound, per cent of control" number=25
smiles_representation=N=C1NC(=O)/C(=C/c2ccc(-c3cccc4cc[nH]c34)o2)S1 measurement_kind="kinase still bound, per cent of control" number=7.4
smiles_representation=O=C1NC(=S)S/C1=C\c1ccc(-c2cncc3ccccc23)o1 measurement_kind="kinase still bound, per cent of control" number=13
smiles_representation=N=C1NC(=O)/C(=C/c2ccc(-c3ccc(C(N)=O)cc3O)o2)S1 measurement_kind="kinase still bound, per cent of control" number=5.6
smiles_representation=CS(=O)(=O)Nc1ccc(-c2cc(/C=C3\SC(=N)NC3=O)c[nH]c2=O)cc1 measurement_kind="kinase still bound, per cent of control" number=3.2
smiles_representation=COc1cc(N2CCN(C)CC2)ccc1Nc1ncc2c(n1)N(C(C)C)c1ccccc1C(=O)N2 measurement_kind="kinase still bound, per cent of control" number=12
smiles_representation=N=C1NC(=O)/C(=C/c2c[nH]c(=O)c(-c3ccc(S(N)(=O)=O)cc3)c2)S1 measurement_kind="kinase still bound, per cent of control" number=23

Request: Report kinase still bound, per cent of control for CN1C(=O)c2ccccc2N(C)c2nc(Nc3ccc(N4CCC(O)CC4)cc3)ncc21
Result: 100

---

The molecules listed here are annotated with their kinase still bound, per cent of control.
Target: PAK3 (human)
Experiment: KINOMEscan competition binding
Details: compound 10.0 µM

Consider the worked cases shown below.
smiles_representation=COc1cc(N2CCN(C)CC2)ccc1Nc1ncc2c(n1)N(C)c1ccccc1N(C)C2=O result=93%
smiles_representation=CN1C(=O)c2ccccc2N(C)c2nc(NS(=O)(=O)c3ccc(N)cc3)ncc21 result=76%

Now consider a different molecule.
Request: Retrieve kinase still bound, per cent of control on PAK3 (human); query CN1C(=O)c2ccccc2N(C)c2nc(Nc3ccc(N4CCC(O)CC4)cc3)ncc21
Result: 37%

---

The molecules listed here are annotated with their kinase still bound, per cent of control.
Target: CSNK1G1 (human)
Test: KINOMEscan competition binding
Settings: compound 10.0 µM
Reply with just the number (in %).

Consider the worked cases shown below.
smiles_representation=CN1CCN(c2ccc(C(=O)Nc3ncc4c(n3)N(C)c3ccccc3C(=O)N4C)cc2)CC1 measurement_kind="kinase still bound, per cent of control" number=100
smiles_representation=NS(=O)(=O)c1ccc(-c2ccc(/C=C3\SC(=S)N(CC(=O)O)C3=O)o2)cc1 measurement_kind="kinase still bound, per cent of control" number=27

Request: Report kinase still bound, per cent of control for COc1cc(N2CCN(C)CC2)ccc1Nc1ncc2c(n1)N(C)c1ccccc1N(C)C2=O
Result: 100

Request: Report kinase still bound, per cent of control for CN1C(=O)c2ccccc2N(C)c2nc(Nc3ccc(N4CCC(O)CC4)cc3)ncc21
Result: 73
